Recorded ED (2-fold bladder contraction AUC), one value per entry.
Tested on: urinary bladder
experiment.summary: Potentiation effect for rhythmic contraction of urinary bladder in guinea pig, Experimental Example 2
Type: in vivo, Hartley male guinea pigs
test.parameters: Cavia porcellus, iv, urethane-anesthetized guinea pig; dose at which AUC of bladder internal pressure before drug administration was increased 2 times; read-out: AUC200 (mg/kg, i.v.)
The reply should be a number in mg/kg, with the unit left off.

Use the examples below as a reference point.
- Cc1cccc(CN2CCC(CCC(=O)c3cc4c5c(c3)CCN5C(=O)CC4)CC2)c1 [compound 6]: 0.0049
- N#Cc1cccc(CN2CCC(CCC(=O)c3cc4c5c(c3)CCN5C(=O)CC4)CC2)c1 [Reference Example 1]: 0.005

stdin: Return reported ED (2-fold bladder contraction AUC); argument: O=C(CCC1CCN(Cc2cccc(Cl)c2)CC1)c1cc2c3c(c1)CCN3C(=O)CC2 [compound 4]
stdout: 0.005
